Target: CDK6/D3 (Homo sapiens, UniProt Q00534)
Sequence (Q00534 whole entry): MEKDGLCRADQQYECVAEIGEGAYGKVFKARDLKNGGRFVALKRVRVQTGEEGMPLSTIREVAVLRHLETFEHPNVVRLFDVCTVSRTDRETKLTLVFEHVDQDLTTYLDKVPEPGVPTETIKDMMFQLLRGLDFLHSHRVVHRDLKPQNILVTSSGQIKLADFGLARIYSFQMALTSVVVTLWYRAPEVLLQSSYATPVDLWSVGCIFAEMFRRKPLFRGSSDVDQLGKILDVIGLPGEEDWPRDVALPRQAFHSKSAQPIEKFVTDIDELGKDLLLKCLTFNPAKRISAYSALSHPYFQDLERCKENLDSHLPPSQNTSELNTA
Sequence (P30281 whole entry partner): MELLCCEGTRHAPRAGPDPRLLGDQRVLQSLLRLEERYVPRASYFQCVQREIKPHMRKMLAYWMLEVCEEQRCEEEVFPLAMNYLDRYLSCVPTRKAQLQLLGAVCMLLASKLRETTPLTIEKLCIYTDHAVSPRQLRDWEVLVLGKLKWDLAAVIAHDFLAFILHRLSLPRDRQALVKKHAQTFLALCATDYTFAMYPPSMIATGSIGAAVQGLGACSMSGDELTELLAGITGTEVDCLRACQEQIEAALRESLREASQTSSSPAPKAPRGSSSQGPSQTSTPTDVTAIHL
Test: ADP Glo Kinase assay CDK6/D3
Assay type: biochemical
Conditions: CDK6D3; compound at 10 μM; read-out: residual activity (%) at 10 μM CDK6D3
MEASURED_QUANTITY: remaining activity at 10 µM (%)

Examples with answers:
Cc1cnc(N[C@H]2CC[C@H](N)CC2)nc1-c1cnc2cc(Nc3cncnc3)ccn12    5
N[C@H]1CC[C@H](Nc2ncc(Cl)c(-c3cnc4ccccn34)n2)CC1    45
Cc1ccc(Nc2ccc3ncc(-c4nc(N[C@H]5CC[C@H](N)CC5)ncc4C)n3c2)cn1    25
N[C@H]1CC[C@H](Nc2ncc(F)c(-c3cnc4ccc(NC(=O)c5ccc(F)cc5)cn34)n2)CC1    22
CS(=O)(=O)N[C@H]1CC[C@H](Nc2ncc(Cl)c(-c3cnc4ccc(Br)cn34)n2)CC1    26
CS(=O)(=O)N[C@H]1CC[C@H](Nc2ncc(F)c(-c3cnc4ccccn34)n2)CC1    32
Cc1cnc(N[C@H]2CC[C@@H](N)CC2)nc1-c1cnc2ccc(-c3ccccc3)cn12    41
Cc1cnc(N[C@H]2CC[C@H](N)CC2)nc1-c1cnc2ccc(-c3cccnc3)cn12    45

P: N[C@H]1CC[C@H](Nc2ncc(F)c(-c3cnc4ccc(-c5ccc(C(=O)N6CCNCC6)cc5)cn34)n2)CC1
Q: CS(=O)(=O)N1CCC(Nc2ncc(F)c(-c3cnc4ccccn34)n2)CC1
Please choose the item with the lower remaining activity at 10 µM value from this pair: P and Q Pick one and reply with its label. P
(P: 12%, Q: 18%)

1: CS(=O)(=O)N[C@H]1CC[C@H](Nc2ncc(Cl)c(-c3cnc4c(Br)cc(C(F)(F)F)cn34)n2)CC1
2: Cc1cnc(N[C@H]2CC[C@H](O)CC2)nc1-c1cnc2ccc(Nc3cncnc3)cn12
3: N[C@H]1CC[C@H](Nc2ncc(F)c(-c3cnc4cc(Cl)ccn34)n2)CC1
4: Fc1cnc(N[C@H]2CC[C@H](NC3CCOCC3)CC2)nc1-c1cnc2ccccn12
5: N[C@H]1CC[C@H](Nc2ncc(Cl)c(-c3cnc4cc(-c5ccccc5)ccn34)n2)CC1
Arrange the 5 molecules by rising remaining activity at 10 µM, starting with the smallest. List labels; respect the requested ordering. 3, 5, 4, 1, 2
(3: 2%, 5: 6%, 4: 12%, 1: 41%, 2: 68%)

1: Cc1cnc(N[C@H]2CC[C@@H](N)CC2)nc1-c1cnc2ccc(Nc3cncnc3)cn12
2: N[C@H]1CC[C@H](Nc2ncc(F)c(-c3cnc4ccc(C(F)(F)F)cn34)n2)CC1
3: N[C@H]1CC[C@H](Nc2ncc(F)c(-c3cnc4ccc(Nc5cncnc5)cn34)n2)CC1
4: Cc1cnc(N[C@H]2CC[C@H](N)CC2)nc1-c1cnc2ccc(Nc3ccc(OC(F)F)nc3)cn12
5: Cc1cnc(N[C@H]2CC[C@H](N)CC2)nc1-c1cnc2cc(-c3cccnc3)ccn12
Arrange the 5 molecules by rising remaining activity at 10 µM, starting with the smallest. List labels; respect the requested ordering. 5, 3, 4, 2, 1

I: COc1cccc(-c2ccc3ncc(-c4nc(N[C@H]5CC[C@H](N)CC5)ncc4C)n3c2)c1
II: Cc1cnc(NC2CCOCC2)nc1-c1cnc2ccc(Nc3cncnc3)cn12
Please choose the item with the lower remaining activity at 10 µM value from this pair: I and II Pick one and reply with its label. I

A: Cc1cncc(Nc2ccc3ncc(-c4nc(N[C@H]5CC[C@H](N)CC5)ncc4C)n3c2)c1
B: C[C@]12C[C@]3(C)C[C@](O)(C1)C[C@](Nc1ncc(F)c(-c4cnc5ccc(Nc6cncnc6)cn45)n1)(C2)C3
Please choose the item with the lower remaining activity at 10 µM value from this pair: A and B Pick one and reply with its label. A

a: Cc1cnc(N[C@H]2CC[C@H](N)CC2)nc1-c1cnc2ccc(-c3ncccc3F)cn12
b: Cc1cnc(N2CCC3(CCNC3=O)CC2)nc1-c1cnc2ccc(-c3ccccc3)cn12
Please choose the item with the lower remaining activity at 10 µM value from this pair: a and b Pick one and reply with its label. a

A: N[C@H]1CC[C@H](Nc2ncc(Cl)c(-c3cnc4ccc(Br)cn34)n2)CC1
B: Cc1cnc(N[C@H]2CC[C@H](N)CC2)nc1-c1cnc2ccc(-c3ccc(N4CCOCC4)nc3)cn12
Please choose the item with the lower remaining activity at 10 µM value from this pair: A and B Pick one and reply with its label. A

----------
System: leukemia cell lines
Assay: Resazurin cell viability assay on leukemia cell lines (72 h growth inhibition, GI50)
Type: cell-based
Details: Homo sapiens, MV4-11 cells
MEASURED_QUANTITY: GI50 (µM)

Cc1cnc(N[C@H]2CC[C@H](N)CC2)nc1-c1cnc2ccc(-c3ccccc3)cn12    0.059

I: Cc1ccc2ncc(-c3nc(N[C@H]4CC[C@H](N)CC4)ncc3F)n2c1
II: Cc1cnc(NC2CCC(N(C)C)CC2)nc1-c1cnc2ccc(Nc3cncnc3)cn12 (stereo not shown)
Among I and II , which shows a numerically higher GI50 result? Pick one and reply with its label. II

----------
Target: CDKs and other kinases (Homo sapiens)
Construct: other: CDK1B; residual activity (%) at 10 μM CDK1B; compound at 10 μM
Sequence (P06493 whole entry): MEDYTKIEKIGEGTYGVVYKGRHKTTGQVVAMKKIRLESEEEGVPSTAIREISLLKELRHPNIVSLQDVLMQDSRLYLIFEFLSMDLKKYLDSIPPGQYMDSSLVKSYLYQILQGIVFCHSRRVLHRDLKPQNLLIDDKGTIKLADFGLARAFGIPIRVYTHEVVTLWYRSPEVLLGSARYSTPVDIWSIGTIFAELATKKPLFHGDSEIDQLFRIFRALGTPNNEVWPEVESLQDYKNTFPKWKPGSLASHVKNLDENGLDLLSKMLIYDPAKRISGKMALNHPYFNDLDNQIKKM
Assay: Radiometric kinase assay (Eurofins Pharma Discovery or Reaction Biology Corporation Kinase Profiler)
Assay type: biochemical
Settings: CDK1B; compound at 10 μM; read-out: residual activity (%) at 10 μM CDK1B
MEASURED_QUANTITY: remaining activity at 10 µM (%)

COc1cnc(N[C@H]2CC[C@H](N)CC2)nc1-c1cnc2ccccn12    75
Cc1cnc(N[C@H]2CC[C@H](N)CC2)nc1-c1cnc2ccc(Nc3ccccn3)cn12    45
C[C@]12C[C@]3(C)C[C@](O)(C1)C[C@](Nc1ncc(F)c(-c4cnc5ccc(Nc6cncnc6)cn45)n1)(C2)C3    20
CN1CCC(N[C@H]2CC[C@H](Nc3ncc(F)c(-c4cnc5ccc(-c6ccccc6)cn45)n3)CC2)CC1    3
Cc1cnc(N[C@H]2CC[C@H](N)CC2)nc1-c1cnc2cc(-c3cccnc3)ccn12    29
Cc1cnc(NC2CCOCC2)nc1-c1cnc2ccc(Nc3cncnc3)cn12    4
N[C@H]1CC[C@H](Nc2ncc(Cl)c(-c3cnc4ccc(NC(=O)c5ccccc5)cn34)n2)CC1    31
Cc1cnc(N[C@H]2CC[C@H](N3CCCC3)CC2)nc1-c1cnc2ccc(-c3ccccc3)cn12    39
Cc1cnc(N[C@H]2CC[C@H](N)CC2)nc1-c1cnc2ccc(Nc3ccccc3)cn12    32
Cc1ccc2ncc(-c3nc(N[C@H]4CC[C@H](N)CC4)ncc3F)n2c1    1

I: Cc1cnc(N[C@H]2CC[C@H](N)CC2)nc1-c1cnc2cc(F)c(-c3ccccc3)cn12
II: N[C@H]1CC[C@H](Nc2ncc(F)c(-c3cnc4ccc(-c5cccnc5)cn34)n2)CC1
Among I and II , which shows a numerically higher remaining activity at 10 µM result? Pick one and reply with its label. I

A: Cc1cnc(N[C@H]2CC[C@H](N3CCCC3)CC2)nc1-c1cnc2ccc(Nc3cncnc3)cn12
B: Cc1cnc(N[C@H]2CC[C@H](N)CC2)nc1-c1cnc2ccc(NC(=O)Cc3ccccc3)cn12
C: Fc1cnc(N[C@H]2CC[C@H](Nc3ccccn3)CC2)nc1-c1cnc2ccc(-c3ccccc3)cn12
Arrange the 3 molecules by rising remaining activity at 10 µM, starting with the smallest. List labels; respect the requested ordering. C, A, B

----------
Target: CDKs and other kinases (Homo sapiens)
Construct: other: CDK1B; residual activity (%) at 10 μM CDK1B; compound at 10 μM
Experiment: Radiometric kinase assay (Eurofins Pharma Discovery or Reaction Biology Corporation Kinase Profiler)
Format: biochemical
Conditions: CDK1B; read-out: CDK inhibition, Ki (μM) CDK1B
MEASURED_QUANTITY: Ki (µM)

Examples with answers:
CS(=O)(=O)N[C@H]1CC[C@H](Nc2ncc(Cl)c(-c3cnc4c(Br)cc(C(F)(F)F)cn34)n2)CC1    0.028
Cc1cnc(N[C@H]2CC[C@H](NCC(N)=O)CC2)nc1-c1cnc2ccc(Nc3cncnc3)cn12    0.632

1: N[C@H]1CC[C@H](Nc2ncc(Cl)c(-c3cnc4c(-c5ccccc5)cc(C(F)(F)F)cn34)n2)CC1
2: Cc1cnc(NC2CCC(NCC(F)(F)F)CC2)nc1-c1cnc2ccc(Nc3cncnc3)cn12 (stereo not shown)
Please choose the item with the lower Ki value from this pair: 1 and 2 Pick one and reply with its label. 2

----------
System: leukemia cell lines
Test: Resazurin cell viability assay on leukemia cell lines (72 h growth inhibition, GI50)
Format: cell-based
Details: Homo sapiens, MV4-11 cells
MEASURED_QUANTITY: GI50 (µM)

N[C@H]1CC[C@H](Nc2ncc(Cl)c(-c3cnc4ccc(NC(=O)c5ccccc5)cn34)n2)CC1 [Compound 87]    0.135
CC(C)(C)OC(=O)N1CCC(Nc2ncc(F)c(-c3cnc4ccccn34)n2)CC1 [Compound 20]    0.092
Fc1cnc(NC2CCN(CC3CC3)CC2)nc1-c1cnc2ccccn12 [Compound 22]    0.041

P: Cc1cnc(NC2CCC(N(C)C)CC2)nc1-c1cnc2ccc(-c3ccccc3)cn12 (centres unmarked) [Compound 97]
Q: Cc1cnc(N[C@H]2CC[C@H](N)CC2)nc1-c1cnc2ccc(Nc3ccc(OC(F)F)nc3)cn12 [Compound 68]
R: N[C@H]1CC[C@H](Nc2ncc(Cl)c(-c3cnc4ccc(NCc5ccc(F)cc5)cn34)n2)CC1 [Compound 41]
S: CN1CCC(Nc2ncc(F)c(-c3cnc4ccc(-c5ccccc5)cn34)n2)CC1 [Compound 144]
Arrange the 4 molecules by rising GI50, starting with the smallest. List labels; respect the requested ordering. S, R, P, Q
